System: OVCAR-3
RUN_DESCRIPTION: NCI tumour cell line growth inhibition, 48 h
Active and inactive are the calls of the source. Cut-off read from the data, not from the text of the source: active = GI50 up to about 1.1 µM and inactive = higher.
Classes used: Y = active, N = inactive

# COMPOUND, CLASS_NAME
records = [
    ("Cc1ccc(/N=C2\\C(=O)C3=C(OC(C)(C)CC3)c3ccccc32)cc1", "Y"),
    ("CCOc1ncn(-c2ccc(NC(=S)NC3OC(CO)C(O)C(O)C3O)cc2)n1 (stereo not given)", "N"),
    ("CCCCCCCCCCCOc1ccc(C(=O)C(=O)c2ccc(OCCCCCCCCCCC)c(OCCCCCCCCCCC)c2)cc1OCCCCCCCCCCC", "N"),
    ("CC(=O)N1c2ccccc2Sc2cc(C(O)(C(F)(F)F)C(F)(F)F)ccc21", "N"),
    ("O=C1NC(N2CCCC(CO)C2)=N/C1=C\\c1ccc(Cl)cc1 (stereo not given)", "N"),
]
